Where these numbers come from: patent US20130045895A1

- Target or test system: T1, Human Serum Albumin (human, UniProt P02768 25-609)
- T1 construct: also called HSA; antigen
- T1 sequence (P02768 25-609 limits assumed): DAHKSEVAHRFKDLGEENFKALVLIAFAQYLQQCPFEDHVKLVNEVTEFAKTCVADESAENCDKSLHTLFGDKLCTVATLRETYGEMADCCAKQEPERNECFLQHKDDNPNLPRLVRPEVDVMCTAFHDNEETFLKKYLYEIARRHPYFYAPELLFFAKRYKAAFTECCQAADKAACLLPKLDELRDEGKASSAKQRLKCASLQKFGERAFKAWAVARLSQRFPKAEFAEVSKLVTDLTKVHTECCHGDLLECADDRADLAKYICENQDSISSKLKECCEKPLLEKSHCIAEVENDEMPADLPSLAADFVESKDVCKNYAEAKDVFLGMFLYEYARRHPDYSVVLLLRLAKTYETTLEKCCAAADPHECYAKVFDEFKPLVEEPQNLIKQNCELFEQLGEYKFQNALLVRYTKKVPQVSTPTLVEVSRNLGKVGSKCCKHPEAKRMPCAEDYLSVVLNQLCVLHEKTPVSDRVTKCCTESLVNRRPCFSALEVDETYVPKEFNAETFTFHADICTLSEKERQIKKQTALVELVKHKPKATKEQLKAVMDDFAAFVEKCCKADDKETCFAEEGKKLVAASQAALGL
- Method summary: BIAcore, supernatant over immobilised HSA (6036 RU);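 also: expressed culture supernatants of mutant clones diluted 1:1 in HBS-EP buffer and screened for binding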
Measurement name: binding result

Here's what some known entries look like.
Binder: DOM7h-14 A43F (other) VL: DIQMTQSPSSLSASVGDRVTITCRASQWIGSQLSWYQQKPGKFPKLLIMWRSSLQSGVPSRFSGSGSGTDFTLTISSLQPEDFATYYCAQGAALPRTFGQGTKVEIKR
Measurement name: binding result
Reported value: binds
--
Binder: DOM7h-14 A43N (other) VL: DIQMTQSPSSLSASVGDRVTITCRASQWIGSQLSWYQQKPGKNPKLLIMWRSSLQSGVPSRFSGSGSGTDFTLTISSLQPEDFATYYCAQGAALPRTFGQGTKVEIKR
Measurement name: binding result
Reported value: binds
--
Binder: DOM7h-14 Q38D (other) VL: DIQMTQSPSSLSASVGDRVTITCRASQWIGSQLSWYQDKPGKAPKLLIMWRSSLQSGVPSRFSGSGSGTDFTLTISSLQPEDFATYYCAQGAALPRTFGQGTKVEIKR
Measurement name: binding result
Reported value: binds
--
Binder: DOM7h-14 A43P (other) VL: DIQMTQSPSSLSASVGDRVTITCRASQWIGSQLSWYQQKPGKPPKLLIMWRSSLQSGVPSRFSGSGSGTDFTLTISSLQPEDFATYYCAQGAALPRTFGQGTKVEIKR
Measurement name: binding result
Reported value: binds

Each binder below has a recorded value; state its binding result.
1. DOM7h-14 A43I (other) VL: DIQMTQSPSSLSASVGDRVTITCRASQWIGSQLSWYQQKPGKIPKLLIMWRSSLQSGVPSRFSGSGSGTDFTLTISSLQPEDFATYYCAQGAALPRTFGQGTKVEIKR
2. DOM7h-14 P44E (other) VL: DIQMTQSPSSLSASVGDRVTITCRASQWIGSQLSWYQQKPGKAEKLLIMWRSSLQSGVPSRFSGSGSGTDFTLTISSLQPEDFATYYCAQGAALPRTFGQGTKVEIKR
3. DOM7h-14 P44G (other) VL: DIQMTQSPSSLSASVGDRVTITCRASQWIGSQLSWYQQKPGKAGKLLIMWRSSLQSGVPSRFSGSGSGTDFTLTISSLQPEDFATYYCAQGAALPRTFGQGTKVEIKR
4. DOM7h-14 Q38H (other) VL: DIQMTQSPSSLSASVGDRVTITCRASQWIGSQLSWYQHKPGKAPKLLIMWRSSLQSGVPSRFSGSGSGTDFTLTISSLQPEDFATYYCAQGAALPRTFGQGTKVEIKR
5. DOM7h-14 Q38E (other) VL: DIQMTQSPSSLSASVGDRVTITCRASQWIGSQLSWYQEKPGKAPKLLIMWRSSLQSGVPSRFSGSGSGTDFTLTISSLQPEDFATYYCAQGAALPRTFGQGTKVEIKR

["binds", "binds", "binds", "binds", "binds"]

Each binder below has a recorded value; state its binding result.
1. DOM7h-14 Q38F (other) VL: DIQMTQSPSSLSASVGDRVTITCRASQWIGSQLSWYQFKPGKAPKLLIMWRSSLQSGVPSRFSGSGSGTDFTLTISSLQPEDFATYYCAQGAALPRTFGQGTKVEIKR
2. DOM7h-14 P44D (other) VL: DIQMTQSPSSLSASVGDRVTITCRASQWIGSQLSWYQQKPGKADKLLIMWRSSLQSGVPSRFSGSGSGTDFTLTISSLQPEDFATYYCAQGAALPRTFGQGTKVEIKR
3. DOM7h-14 P44C (other) VL: DIQMTQSPSSLSASVGDRVTITCRASQWIGSQLSWYQQKPGKACKLLIMWRSSLQSGVPSRFSGSGSGTDFTLTISSLQPEDFATYYCAQGAALPRTFGQGTKVEIKR
4. DOM7h-14 A43T (other) VL: DIQMTQSPSSLSASVGDRVTITCRASQWIGSQLSWYQQKPGKTPKLLIMWRSSLQSGVPSRFSGSGSGTDFTLTISSLQPEDFATYYCAQGAALPRTFGQGTKVEIKR
5. DOM7h-14 Q38A (other) VL: DIQMTQSPSSLSASVGDRVTITCRASQWIGSQLSWYQAKPGKAPKLLIMWRSSLQSGVPSRFSGSGSGTDFTLTISSLQPEDFATYYCAQGAALPRTFGQGTKVEIKR
6. DOM7h-14 Q38Y (other) VL: DIQMTQSPSSLSASVGDRVTITCRASQWIGSQLSWYQYKPGKAPKLLIMWRSSLQSGVPSRFSGSGSGTDFTLTISSLQPEDFATYYCAQGAALPRTFGQGTKVEIKR

1. binds
2. binds
3. binds
4. binds
5. binds
6. binds

Dear colleague, I am looking for the recorded binding result of the following binder: DOM7h-14 A43V (other) VL: DIQMTQSPSSLSASVGDRVTITCRASQWIGSQLSWYQQKPGKVPKLLIMWRSSLQSGVPSRFSGSGSGTDFTLTISSLQPEDFATYYCAQGAALPRTFGQGTKVEIKR binds
